Value source: PubChem BioAssay AID328

- System: BDF1 mice, P388 leukemia ip, median survival T/C
- TEST_DETAILS: NCI In Vivo Anticancer Drug Screen. Data for tumor model P388 Leukemia (intraperitoneal) in B6D2F1 (BDF1) mice
- EXPERIMENTAL_SETUP: endpoint: median survival time; dose: 200.0 mg/kg/injection; schedule: Q01DX009 (ip); vehicle: saline; higher = longer survival
Inconclusive results and toxic doses are left out.
ASSAY_METRIC: T/C

COMPOUND	T/C
CS(=O)(=O)C(F)(F)C(F)(F)C(F)(F)C(F)(F)F	106 % of control
CC1(c2cccs2)C(=O)N(Cl)C(=O)N1Cl (configuration not stated)	120 % of control
S=c1cc(-c2ccc(Cl)cc2)ss1	107 % of control
CCOC(=O)CNC(=O)NC12CC3CC(CC(C3)C1)C2	104 % of control
C#CCOC(=O)NCC	115 % of control

Now examine the next entry.
Please fill in: T/C reported for "N#CC1=C(N)CCCC1" = 102 % of control
